Attribution: patent US20100260765A1

System under test: KDR (human, UniProt P35968 20-1356)
Sequence (P35968 20-1356): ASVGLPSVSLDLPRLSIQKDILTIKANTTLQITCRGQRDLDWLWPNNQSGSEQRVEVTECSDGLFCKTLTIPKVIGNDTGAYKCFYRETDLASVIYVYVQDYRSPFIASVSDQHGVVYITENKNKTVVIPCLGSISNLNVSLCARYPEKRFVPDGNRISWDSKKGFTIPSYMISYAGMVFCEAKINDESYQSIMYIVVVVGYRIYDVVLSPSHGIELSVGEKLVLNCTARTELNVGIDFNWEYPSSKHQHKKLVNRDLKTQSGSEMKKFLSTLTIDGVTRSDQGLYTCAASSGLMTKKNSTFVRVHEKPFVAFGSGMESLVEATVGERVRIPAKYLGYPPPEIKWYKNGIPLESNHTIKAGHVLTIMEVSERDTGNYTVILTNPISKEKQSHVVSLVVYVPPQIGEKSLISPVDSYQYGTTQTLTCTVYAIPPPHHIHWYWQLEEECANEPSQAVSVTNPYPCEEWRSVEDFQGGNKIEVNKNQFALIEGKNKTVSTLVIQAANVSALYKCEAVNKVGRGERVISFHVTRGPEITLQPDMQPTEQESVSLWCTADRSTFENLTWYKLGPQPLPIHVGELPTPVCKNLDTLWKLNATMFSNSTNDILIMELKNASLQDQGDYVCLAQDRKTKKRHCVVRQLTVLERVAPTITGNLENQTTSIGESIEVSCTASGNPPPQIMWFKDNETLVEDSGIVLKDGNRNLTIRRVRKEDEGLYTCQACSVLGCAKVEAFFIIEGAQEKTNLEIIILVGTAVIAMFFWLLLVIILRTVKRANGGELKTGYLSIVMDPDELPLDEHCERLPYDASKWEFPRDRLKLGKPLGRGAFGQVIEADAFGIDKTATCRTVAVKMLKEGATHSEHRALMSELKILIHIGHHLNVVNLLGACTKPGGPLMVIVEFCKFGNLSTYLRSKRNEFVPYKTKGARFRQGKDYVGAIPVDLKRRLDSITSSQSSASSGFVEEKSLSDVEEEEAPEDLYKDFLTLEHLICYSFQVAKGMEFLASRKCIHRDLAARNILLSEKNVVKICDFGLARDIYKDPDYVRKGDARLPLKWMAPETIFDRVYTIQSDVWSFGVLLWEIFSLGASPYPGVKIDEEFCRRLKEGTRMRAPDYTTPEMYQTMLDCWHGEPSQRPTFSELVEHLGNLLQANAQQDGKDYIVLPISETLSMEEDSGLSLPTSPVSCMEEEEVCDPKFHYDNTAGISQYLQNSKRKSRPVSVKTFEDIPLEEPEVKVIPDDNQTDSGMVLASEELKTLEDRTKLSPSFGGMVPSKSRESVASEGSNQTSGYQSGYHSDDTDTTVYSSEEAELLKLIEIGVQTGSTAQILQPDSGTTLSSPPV
Method notes: cell-based or functional assay
Endpoint: % of Max VEGF KDR pTyr Activity (at 133 nM antibody concentration), N = 2 (%)
Answer in %, number only, no unit symbol.

Some solved entries appear below for comparison.
[[record]]
binder = "33C3 (antibody, V domains shown) VH: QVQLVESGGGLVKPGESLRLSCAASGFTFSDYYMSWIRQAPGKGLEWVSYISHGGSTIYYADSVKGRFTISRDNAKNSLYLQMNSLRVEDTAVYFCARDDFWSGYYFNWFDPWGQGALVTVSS VL: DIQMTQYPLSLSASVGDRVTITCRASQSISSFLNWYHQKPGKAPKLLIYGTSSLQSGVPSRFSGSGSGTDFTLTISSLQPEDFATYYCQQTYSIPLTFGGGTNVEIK"
measured = 10

[[record]]
binder = "29F7 (antibody, V domains shown) VH: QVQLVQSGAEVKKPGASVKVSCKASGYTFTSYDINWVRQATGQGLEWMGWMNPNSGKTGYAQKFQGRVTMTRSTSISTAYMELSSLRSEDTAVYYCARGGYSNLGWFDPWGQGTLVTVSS VL: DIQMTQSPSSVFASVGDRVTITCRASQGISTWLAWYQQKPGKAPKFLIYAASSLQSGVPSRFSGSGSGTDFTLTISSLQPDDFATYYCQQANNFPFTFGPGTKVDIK"
measured = 12


Kindly review the next binder as well.
Challenge: Please look at this binder and report its % of Max VEGF KDR pTyr Activity (at 133 nM antibody concentration), N = 2: 31E11 (antibody, V domains shown) VH: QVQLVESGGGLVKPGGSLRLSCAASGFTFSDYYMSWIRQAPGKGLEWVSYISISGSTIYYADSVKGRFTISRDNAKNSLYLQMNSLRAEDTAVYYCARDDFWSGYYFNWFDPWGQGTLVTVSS VL: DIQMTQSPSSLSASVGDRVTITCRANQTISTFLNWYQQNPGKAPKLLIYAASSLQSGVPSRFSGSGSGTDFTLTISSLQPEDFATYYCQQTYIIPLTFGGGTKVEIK
Response given: 6
